# testDetails: in vitro
# Format: cell-based, Chinese hamster
# recordedConditions: hamster, cho auxb1 cells
Counter-ions that a name gives are not always drawn.
Label y when viability at 96 h, 10 µM is strictly below 90%; at or above that, label n.

Look over these answered cases.
# strict comparison: is reported viability at 96 h, 10 µM < 90%? input = Brc1cccc2c1OCc1ccccc1C2=CCN1CCCC1 [(J)] n

# strict comparison: is reported viability at 96 h, 10 µM < 90%? input = CN(C)CC/C=C1/c2ccccc2COc2c(Br)cccc21 [(D)] n

# strict comparison: is reported viability at 96 h, 10 µM < 90%? input = CN(C)CC/C=C1/c2ccccc2COc2cc(Br)ccc21 [(E)] n

# strict comparison: is reported viability at 96 h, 10 µM < 90%? input = CN(C)CCC=C1c2ccccc2COc2ccccc21 [(W), doxepin, reference compound] n

# strict comparison: is reported viability at 96 h, 10 µM < 90%? input = CN(C)CC/C=C1\c2cc(Br)ccc2COc2ccc(Br)cc21 [(V)] y

# strict comparison: is reported viability at 96 h, 10 µM < 90%? input = Brc1ccc2c(c1)/C(=C\CCN1CCCC1)c1cc(Br)ccc1OC2 [(R)] n

# strict comparison: is reported viability at 96 h, 10 µM < 90%? input = Brc1ccc2c(c1)/C(=C/CCN1CCCC1)c1ccccc1OC2 [(M)] y

# strict comparison: is reported viability at 96 h, 10 µM < 90%? input = CN(C)CC/C=C1\c2ccccc2COc2ccc(F)cc21 [(P)] n

# strict comparison: is reported viability at 96 h, 10 µM < 90%? input = Brc1ccc2c(c1)/C(=C\CCN1CCCC1)c1ccccc1CO2 [(G)] n

# strict comparison: is reported viability at 96 h, 10 µM < 90%? input = CN(C)CCC=C1c2ccc(Br)cc2COc2ccccc21 [(L)] y

More entries:
# strict comparison: is reported viability at 96 h, 10 µM < 90%? input = Fc1ccc2c(c1)/C(=C\CCN1CCCC1)c1ccccc1CO2 [(T)] n

# strict comparison: is reported viability at 96 h, 10 µM < 90%? input = C(/CN1CCCC1)=C1\c2ccccc2COc2ccccc21 [(H), hydrochloride] n

# strict comparison: is reported viability at 96 h, 10 µM < 90%? input = CN(C)CC/C=C1/c2ccccc2COc2ccc(Br)cc21.Cl.Cl.Cl [(A), trihydrochloride] n

# strict comparison: is reported viability at 96 h, 10 µM < 90%? input = CCN(CC)CC/C=C1\c2ccccc2COc2ccc(Br)cc21 [(N)] y

# strict comparison: is reported viability at 96 h, 10 µM < 90%? input = Brc1ccc2c(c1)/C(=C/CCN1CCCC1)c1ccccc1CO2 [(K)] y

# strict comparison: is reported viability at 96 h, 10 µM < 90%? input = CN(C)CC/C=C1/c2cc(Br)ccc2COc2ccc(Br)cc21 [(U)] y

# strict comparison: is reported viability at 96 h, 10 µM < 90%? input = Brc1ccc2c(c1)/C(=C/CCN1CCCC1)c1cc(Br)ccc1OC2 [(O)] n

# strict comparison: is reported viability at 96 h, 10 µM < 90%? input = CN(C)CC/C=C1/c2ccccc2COc2ccc(F)cc21 [(Q)] n

# strict comparison: is reported viability at 96 h, 10 µM < 90%? input = CN(C)CC/C=C1\c2ccccc2COc2ccc(Br)cc21 [(B), hydrochloride] y
